assay: NCI Yeast Anticancer Drug Screen. Data for the cln2 rad14 strain (AID 165);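 note: 0% = growth equal to vehicle treated cultures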; conditions: S. cerevisiae cln2 rad14 strain, at 50.0 µM, hits give high values
Compounds without any hit were thinned out: in the full panel of roughly 79,000, 15% have a hit.
assay_endpoint: growth inhibition (%)
Supply the numeric figure in %, leaving out any unit text.

These recorded examples may help you get a feel for the data.
Entry CN(C)C1CS(=O)(=O)OC2=C1COCC2 (stereo not drawn) ; growth inhibition = -3.8

Entry `COC(=O)c1c2c(cc3c1CC1(Cc4cc5c(cc4C1)CCCC5)C3)CCCC2` ; growth inhibition = 12.3

Entry COc1cc(C2C(C(C)=O)=C(C)Oc3cc4c(cc32)OCO4)cc(OC)c1O (stereo not drawn) ; growth inhibition = 4.15

Entry `CNS(=O)(=O)c1ccc(Cl)cc1` ; growth inhibition = 13.3

Others:
Entry O=CC(O)CO (stereo not drawn) ; growth inhibition = 3.95

Entry `Cn1ccnc1CCc1ccc(F)cc1F` ; growth inhibition = -0.15

Entry C[N+]1(C)CC2CCC1C2 (stereo not drawn) ; growth inhibition = -27.8

Entry `O=S(=O)(Nc1nccs1)c1ccc(Cl)cc1` ; growth inhibition = 20.4

Entry `CC1(C)OP2(O)(OC(C)(C)c3ccccc32)c2ccccc21` ; growth inhibition = 1.8

Entry `Cc1cc(S(=O)(=O)Nc2n[nH]c(N)n2)c(Cl)cc1Cl` ; growth inhibition = -51

Entry `COc1cc2c(cc1C/C=C/c1cc(OC)c(OC)c(OC)c1)OCO2` ; growth inhibition = -1.65

Entry `CCCCCCCCCCCCCCCCS(=O)(=O)N/N=C(\c1ccc(C(C)C)cc1)N1CCOCC1` ; growth inhibition = 9.3

Entry `CCCCCCCCCC(C(=O)OCC)(C(=O)OCC)C1CCCC1` ; growth inhibition = 5.75

Entry `CC(C)[C@@H]1NC(=O)[C@@H]2N=C(O[C@H]2C)[C@H](C(C)C)NC(=O)C2N=C1O[C@H]2C` ; growth inhibition = 9.45

Entry `Cc1cc(C)c2ccc(NN=O)nc2n1` ; growth inhibition = 19.1

Entry CCC(c1ccc(CN(C)C)c(O)c1)C(CC)c1ccc(CN(C)C)c(O)c1 (stereo not drawn) ; growth inhibition = -12.9

---

assay: NCI Yeast Anticancer Drug Screen. Data for the mec2-1 strain (AID 157); settings: S. cerevisiae mec2-1 strain, at 50.0 µM
About 79,000 compounds went through this panel and 15% of them were active in at least one assay; those are over-represented in the sample as a whole. The source made the active and inactive calls. No stated cut-off is given here; in the data, active means growth inhibition above about 70%; inactive means the rest.
Write down the outcome that applies. Available outcomes: class 1 (active), class 0 (inactive)

Consider the worked cases shown below.
### Prompt Would you mind telling me which call this test gave `O=C(NC(=O)c1ccccc1Cl)Nc1ccc(C(O)(C(F)(F)F)C(F)(F)F)cc1` ?
### Response class 0

### Prompt Would you mind telling me which call this test gave `CC(=O)CC(C)=NCCCCN=C(C)CC(C)=O` ?
### Response class 0

### Prompt Would you mind telling me which call this test gave `NNC(=O)c1ccc[n+](CCc2ccccc2)c1` ?
### Response class 0

### Prompt Would you mind telling me which call this test gave `N#Cc1c(-c2ccc(Cl)cc2)c(C#N)c(=O)n(NS(=O)(=O)c2ccccc2)c1O` ?
### Response class 0

### Prompt Would you mind telling me which call this test gave `Cc1cccc(C2=N/C(=C\c3ccccc3)C(=O)O2)c1` ?
### Response class 0

Others:
### Prompt Would you mind telling me which call this test gave CC(CO)CCNc1ncnc2c1ncn2CCC#N (centres undefined) ?
### Response class 0

### Prompt Would you mind telling me which call this test gave C=C1CC2(CC(c3ccccc3Cl)OC(c3ccccc3Cl)C2)OC1=O (centres undefined) ?
### Response class 0

### Prompt Would you mind telling me which call this test gave `O=c1[nH]nc(S(=O)(=O)c2ccccc2)c(=O)[nH]1` ?
### Response class 0

### Prompt Would you mind telling me which call this test gave CCc1cc(-c2ccc(OC)cc2)c(C#N)c(=S)n1C1OC(CO)C(O)C(O)C1O (centres undefined) ?
### Response class 0

### Prompt Would you mind telling me which call this test gave `O=C(NN1C(=O)c2cccc3cccc(c23)C1=O)NN1C(=O)c2cccc3cccc(c23)C1=O` ?
### Response class 1

### Prompt Would you mind telling me which call this test gave O=C(c1ccccc1)c1ccccc1NCC(O)COc1cccc2ccccc12 (centres undefined) ?
### Response class 0

### Prompt Would you mind telling me which call this test gave `Cc1ccn2c(CCc3nnc4cc(C)ccn34)nnc2c1` ?
### Response class 0

### Prompt Would you mind telling me which call this test gave `Cc1ccc(S(=O)(=O)NC(=O)N(Cc2ccccc2)C(C)(C)C)cc1` ?
### Response class 0

### Prompt Would you mind telling me which call this test gave `CCOC(=O)C(C)(C)O` ?
### Response class 0

### Prompt Would you mind telling me which call this test gave `CN1CCN(CCN2C(=O)c3ccccc3C2=O)CC1` ?
### Response class 0

### Prompt Would you mind telling me which call this test gave `O=C(Nc1ccc(Cl)cc1)Nc1nnc(-c2cccc(-c3nnc(NC(=O)Nc4ccc(Cl)cc4)o3)c2)o1` ?
### Response class 0

### Prompt Would you mind telling me which call this test gave `NC(N)=NCCCc1ccccc1` ?
### Response class 0

### Prompt Would you mind telling me which call this test gave `Nc1cc([N+](=O)[O-])ccc1N1C(=O)CCCC1=O` ?
### Response class 0

### Prompt Would you mind telling me which call this test gave `CCOC(=O)c1c2ccc(/C=C/c3ccccn3)ccc-2c(C(=O)OCC)c1N` ?
### Response class 0

### Prompt Would you mind telling me which call this test gave `COC(=O)c1ccc(-n2c(C)nc(=O)c(-c3ccccc3)c2C)cc1` ?
### Response class 0

Values from PubChem BioAssay (NCI)
